Could you please report measured MCC at 24 h for the items listed next?
experiment: Cytotoxicity against human HL-60 cells assessed as cell killing incubated for 24 hrs by microscopic analysis; type: toxicity, cell-based; conditions: read-out: MIC
Numbers only, in µM.

Compound | Scale Unit | MCC at 24 h
CCCCCCCCNC(=O)N[C@H]1C=C[C@]2(O[C@H]([C@@H](CC)C(=O)[C@@H](C)[C@@H](O)[C@H](C)[C@@H]3O[C@@H]([C@@H](CC)C(=O)O)CC[C@@H]3C)[C@@H](C)C[C@H]2C)O[C@@]12CC[C@@](C)([C@H]1CC[C@](O)(CC)[C@H](C)O1)O2 | µM | 10
CCCCNC(=S)N[C@H]1C=C[C@]2(O[C@H]([C@@H](CC)C(=O)[C@@H](C)[C@@H](O)[C@H](C)[C@@H]3O[C@@H]([C@@H](CC)C(=O)O)CC[C@@H]3C)[C@@H](C)C[C@H]2C)O[C@@]12CC[C@@](C)([C@H]1CC[C@](O)(CC)[C@H](C)O1)O2 | µM | 10
CCNC(=S)N[C@H]1C=C[C@]2(O[C@H]([C@@H](CC)C(=O)[C@@H](C)[C@@H](O)[C@H](C)[C@@H]3O[C@@H]([C@@H](CC)C(=O)O)CC[C@@H]3C)[C@@H](C)C[C@H]2C)O[C@@]12CC[C@@](C)([C@H]1CC[C@](O)(CC)[C@H](C)O1)O2 | µM | 100

Exercise: Which MCC at 24 h reading was recorded for the compound CC[C@@H](C(=O)[C@@H](C)[C@@H](O)[C@H](C)[C@@H]1O[C@@H]([C@@H](CC)C(=O)O)CC[C@@H]1C)[C@H]1O[C@]2(C=C[C@@H](O)[C@]3(CC[C@@](C)([C@H]4CC[C@](O)(CC)[C@H](C)O4)O3)O2)[C@H](C)C[C@@H]1C [SALINOMYCIN] ?
Key: 100
